test-summary: recombinant barcode read abundance after kanamycin selection (control-corrected) (log10(CPM+1)); higher = more efficient recombination; sequences stand for … in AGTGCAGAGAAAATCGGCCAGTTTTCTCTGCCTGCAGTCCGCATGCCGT…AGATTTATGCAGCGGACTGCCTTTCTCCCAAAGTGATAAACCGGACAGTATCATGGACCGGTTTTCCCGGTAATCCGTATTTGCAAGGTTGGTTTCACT; site = the 11-nt target
endpoint-name: recombinant barcode read abundance (log10)
Lab note: record just the number, no unit beside it.

Before answering, review these 4 worked examples.
[
  {
    "sequence-content": "GAGCAGTCTTGGGTTCTAACCTGTTGCCT (site GAGTAGTCTAG)",
    "test-value": 0.214
  },
  {
    "sequence-content": "TAGTGAACTTGGGTTCTAACCTGTTGCAC (site GCCGAGCCTTG)",
    "test-value": 0.0124
  },
  {
    "sequence-content": "ACACGGCCTTGGGTTCTAACCTGTTGCCG (site TAGTACGCTAA)",
    "test-value": 0.145
  },
  {
    "sequence-content": "GCGCGGCCTTGGGTTCTAACCTGTTGCCT (site ACGCGGCCTAG)",
    "test-value": 0.56
  }
]

Quickly give me recorded recombinant barcode read abundance (log10) for AAACGGTCTTGGGTTCTAACCTGTTGCTA (site AAATGGTCTTA)
0.131

Respond only with recombinant barcode read abundance (log10) recorded for CAAAGTCCTTGGGTTCTAACCTGTTGCAT (site CAAAGTCCTAT)
1.46

Give recombinant barcode read abundance (log10) for the following sequence: CTAGGAGCTTGGGTTCTAACCTGTTGCTC (site CTAGGAGCTAA)
0.241

Please supply the value of reported recombinant barcode read abundance (log10) for the item CACTCTGCTTGGGTTCTAACCTGTTGCCT (site CAGTCTGCTAG)
0.0477

* * *

test-summary: recombinant barcode read abundance after kanamycin selection (control-corrected) (log10(CPM+1)); higher = more efficient recombination; sequences stand for … in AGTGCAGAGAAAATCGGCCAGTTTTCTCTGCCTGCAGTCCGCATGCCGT…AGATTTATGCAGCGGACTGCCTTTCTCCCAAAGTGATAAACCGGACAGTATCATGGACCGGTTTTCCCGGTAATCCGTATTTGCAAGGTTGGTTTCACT; site = the 11-nt target
Here, each record is paired with measured recombinant barcode read abundance (log10) data.
Number, no unit, nothing else.

Example entries begin here.
[
  {
    "sequence-content": "AGTCTGCCTTGGGTTCTAACCTGTTGCCT (site GGTCTGCCTAG)",
    "test-value": 0.0978
  },
  {
    "sequence-content": "ACGAATCCTTGGGTTCTAACCTGTTGCTT (site ACGACTCCTAA)",
    "test-value": 0.0122
  },
  {
    "sequence-content": "TAACGTACTTGGGTTCTAACCTGTTGCGG (site TAACGTCCTAC)",
    "test-value": 0.113
  },
  {
    "sequence-content": "AACATTCCTTGGGTTCTAACCTGTTGCCT (site AACATTCCTAG)",
    "test-value": 0.151
  },
  {
    "sequence-content": "GTCTCATCTTGGGTTCTAACCTGTTGCCT (site GTCTCATCTAG)",
    "test-value": 0.154
  },
  {
    "sequence-content": "CGAACTACTTGGGTTCTAACCTGTTGCAT (site CGAACTACTAC)",
    "test-value": 0.168
  },
  {
    "sequence-content": "GCGCGGCCTTGGGTTCTAACCTGTTGCCT (site GCGCGGCCTAG)",
    "test-value": 0.253
  },
  {
    "sequence-content": "GAATGGACTTGGGTTCTAACCTGTTGCGA (site CTCATATCTAA)",
    "test-value": 0.0913
  }
]

Please report recombinant barcode read abundance (log10) for the following sequence: TAGGCTCCTTGGGTTCTAACCTGTTGCAC (site TAGGCTCCTAT)
0.2

Give me measured recombinant barcode read abundance (log10), please, for this sequence: GAGCAGTCTTGGGTTCTAACCTGTTGCCT (site GAGCAGTCTAG)
2.4

Dear colleague, please send me the reported recombinant barcode read abundance (log10) for TAGGGTTCTTGGGTTCTAACCTGTTGCGG (site CAGGGTCCTCC) when you can.
0.0906

* * *

test-summary: recombinant barcode read abundance after kanamycin selection (control-corrected) (log10(CPM+1)); higher = more efficient recombination; sequences stand for … in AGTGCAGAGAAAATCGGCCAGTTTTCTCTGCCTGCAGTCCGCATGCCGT…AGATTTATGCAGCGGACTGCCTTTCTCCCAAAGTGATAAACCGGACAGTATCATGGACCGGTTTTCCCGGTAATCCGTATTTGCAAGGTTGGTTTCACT; site = the 11-nt target
endpoint-name: recombinant barcode read abundance (log10)
Write no unit; give the number alone.

Check the records and state recombinant barcode read abundance (log10) for TGGTACGCTTGGGTTCTAACCTGTTGCCT (site TGGTGCGCTAG)
0.15

Tell me measured recombinant barcode read abundance (log10) for ATTCGGGCTTGGGTTCTAACCTGTTGCGT (site ATTCGAGCTGC) please.
0.0603

* * *

test-summary: recombinant UMI read abundance after kanamycin selection (control-corrected) (log10(CPM+1)); higher = more efficient recombination; extreme values may be limits of the assay; sequences stand for … in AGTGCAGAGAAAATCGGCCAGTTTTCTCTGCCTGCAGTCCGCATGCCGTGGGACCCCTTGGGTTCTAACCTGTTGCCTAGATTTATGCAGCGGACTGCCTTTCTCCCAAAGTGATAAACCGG…AGGTTGGTTTCACT; site = the 11-nt donor
endpoint-name: recombinant UMI read abundance (log10)
Reply: number alone, nothing else.

Previously resolved entries follow.
[
  {
    "sequence-content": "CAATGCTCATGGACCGGTTTTCCCGGTAATCCGTATTTGAC (site CAATGCTCTTT)",
    "recombinant UMI read abundance (log10)": 1.28
  },
  {
    "sequence-content": "CAGCTAGCATGGACCGGTTTTCCCGGTAATCCGTATTTGAA (site AAGCTAGCTTT)",
    "recombinant UMI read abundance (log10)": 0.0151
  },
  {
    "sequence-content": "GGGACCTCATGGACCGGTTTTCCCGGTAATCCGTATTTGTA (site GGGACCTCTTA)",
    "recombinant UMI read abundance (log10)": 2.24
  }
]

Return reported recombinant UMI read abundance (log10). Input sequence: TAAAGGCCATGGACCGGTTTTCCCGGTAATCCGTATTTGTA (site TAAAGTCCTTA)
0.12

Give recombinant UMI read abundance (log10) for GGAGTGGCATGGACCGGTTTTCCCGGTAATCCGTATTTGGT (site GGAGTCGCTAC)
0.014

Quickly give me recorded recombinant UMI read abundance (log10) for GGACACCCATGGACCGGTTTTCCCGGTAATCCGTATTTGTT (site GGGCACCCTAA)
0.0209

Give me measured recombinant UMI read abundance (log10), please, for this sequence: CAAGCAGCATGGACCGGTTTTCCCGGTAATCCGTATTTGCT (site CTAGCAGCTAG)
0.616

Recall and state the measured recombinant UMI read abundance (log10) for AGCCTGTCATGGACCGGTTTTCCCGGTAATCCGTATTTGAC (site AGCCTGTCTGT) .
0

Input GTTCGAGCATGGACCGGTTTTCCCGGTAATCCGTATTTGTA (site GTTCGAGCTTC) , output reported recombinant UMI read abundance (log10).
0.014

Quickly give me recorded recombinant UMI read abundance (log10) for TTGTGACCATGGACCGGTTTTCCCGGTAATCCGTATTTGAT (site TTGTGACCTAT)
0.00587

Hello, please tell me recorded recombinant UMI read abundance (log10) for this one: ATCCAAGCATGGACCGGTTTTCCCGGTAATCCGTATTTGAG (site ATCCCAGCTCT)
0.0104

Indicate the recorded recombinant UMI read abundance (log10) value for this sequence: CGTGGAACATGGACCGGTTTTCCCGGTAATCCGTATTTGTT (site CGTGAAACTAA)
0

Give recombinant UMI read abundance (log10) for TCCGGTCCATGGACCGGTTTTCCCGGTAATCCGTATTTGCA (site CCCGGTCCTTG)
0

Tell me its recombinant UMI read abundance (log10) given CGAAGATCATGGACCGGTTTTCCCGGTAATCCGTATTTGCT (site CGAAGATCTAG) as the entry.
1.51

Give the measured recombinant UMI read abundance (log10) for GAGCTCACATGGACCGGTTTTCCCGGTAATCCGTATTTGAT (site GTGCTCACTAT)
0.296

Output measured recombinant UMI read abundance (log10) for this item: CGGAATCCATGGACCGGTTTTCCCGGTAATCCGTATTTGTA (site CGGAATCCTTA)
1.29

Please look at this sequence and report its recombinant UMI read abundance (log10): TCCTCCACATGGACCGGTTTTCCCGGTAATCCGTATTTGGT (site TCCTCCACTAC)
0.0263

Supply measured recombinant UMI read abundance (log10) of CGATCAACATGGACCGGTTTTCCCGGTAATCCGTATTTGGT (site CGATCAACTAC) in your reply.
0.796
